Biological target: T1, Rb^P M704V (human, UniProt P06400 380-788, M704V)
T1 sequence: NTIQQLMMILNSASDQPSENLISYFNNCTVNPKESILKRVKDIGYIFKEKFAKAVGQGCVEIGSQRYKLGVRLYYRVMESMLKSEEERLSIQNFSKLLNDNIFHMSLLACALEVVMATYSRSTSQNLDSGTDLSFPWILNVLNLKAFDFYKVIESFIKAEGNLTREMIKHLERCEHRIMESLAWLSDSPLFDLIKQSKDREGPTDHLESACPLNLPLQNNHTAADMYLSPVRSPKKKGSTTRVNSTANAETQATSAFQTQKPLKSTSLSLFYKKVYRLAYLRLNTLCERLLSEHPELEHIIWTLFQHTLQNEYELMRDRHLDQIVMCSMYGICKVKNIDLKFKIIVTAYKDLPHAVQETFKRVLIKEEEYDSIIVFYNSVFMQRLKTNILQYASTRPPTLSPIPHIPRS
Experiment: fluorescence polarisation
Readout: pKd
Field pKd (float): negative decimal logarithm of the concentration in molar.

Name the recorded pKd of the binder listed here: DLYCYEQLN (not fully specified; TMR fluorescent label (TMR-E7^LxCxE)) [TMR-E7^LxCxE (LxCxE peptide of the E7 oncoprotein from HPV, TMR-labeled)]
7.85
